target: Heat shock protein HSP90 (Homo sapiens, UniProt P07900+P08238)
MEASUREMENT_NAME: Kd (µM)

Example entries and their recorded answers appear below.
CCN(CC)C(=O)c1ccc(O)c(C(C)C)c1	7
CC(C)c1cc(C(=O)N2Cc3ccccc3C2)ccc1O	0.068
CCc1cc(C(=O)N(CC)CC)ccc1O	45

A. COc1ccc(Cl)c(-c2cc(Cl)nc(N)n2)c1
B. CCN(CC)C(=O)c1cc(C(C)(C)C)ccc1O
Request: Parameter check: reported Kd is higher for which label, A or B ? The response must carry the label of the picked entry.
Response: B
(B: 134 µM, A: 0.048 µM)

I. CC(C)c1cc(C(=O)N2CCc3ccccc3C2)ccc1O
II. CCN(CC)C(=O)c1cc(C(C)C)ccc1O
Request: Parameter check: reported Kd is higher for which label, I or II ? The response must carry the label of the picked entry.
Response: II

---

Assay system Heat shock protein HSP90 (Homo sapiens, UniProt P07900+P08238); read-out recorded as Kd.
MEASUREMENT_NAME: Kd (nM)

COc1cccc(Cl)c1-c1cc(Cl)nc(N)n1	36

I. Nc1nc(Cl)cc(-c2ccc(Cl)cc2Cl)n1
II. CC(C)(C)c1cc(C(=O)N2CCc3ccccc3C2)ccc1O
III. COc1cccc(OC)c1-c1cc(Cl)nc(N)n1
IV. CC(C)(C)c1cc(C(=O)N2CCN(c3ccccn3)CC2)ccc1O
Request: Order field: Kd | Direction: descending (largest first) Give the order by naming the labels one after another as requested.
Response: II, IV, III, I
(II: 2500 nM, IV: 250 nM, III: 68 nM, I: 12 nM)

P. Nc1nc(Cl)cc(-c2ccccc2)n1
Q. COc1cc(-c2cc(Cl)nc(N)n2)c(Cl)cc1Cl
R. CCN(CC)C(=O)c1ccc(O)c(C(C)(C)C)c1
Request: In this exercise, place the 3 molecules in ascending sequence of their recorded Kd. Give the order by naming the labels one after another as requested.
Response: Q, P, R

---

Assay system Heat shock protein HSP90 (Homo sapiens, UniProt P07900+P08238); read-out recorded as Kd.
MEASUREMENT_NAME: Kd (µM)

COc1ccc(-c2cc(Cl)nc(N)n2)c(Cl)c1	0.028
CC(C)c1cc(C(=O)N2CCOCC2)c(O)cc1O	0.011
CC(=O)N1CCN(C(=O)c2ccc(O)c(C(C)(C)C)c2)CC1	2.5

P. CC(C)c1cc(C(=O)N2CCOCC2)ccc1O
Q. CC(C)(C)c1cc(C(=O)N2CCC(O)CC2)ccc1O
R. Nc1nc(Cl)cc(-c2ccccc2Cl)n1
S. CCN(CC)C(=O)c1ccc(O)c(Cl)c1
Request: Order field: Kd | Direction: descending (largest first) Give the order by naming the labels one after another as requested.
Response: S, Q, P, R
(S: 1130 µM, Q: 2.3 µM, P: 0.4 µM, R: 0.083 µM)
